Attribution: patent US8916557B2

biological target: CDK2/CycE (Homo sapiens); construct: GST; purchased ProQinase GmbH (Freiburg, Germany); host or cells: insect cells (Sf9); test: CDK2/CycE kinase assay (TR-FRET); format: biochemical; conditions: Method 2, 10 μM ATP
Quick reference: IC50 of the listed items.
The figure you give is taken to be in µM; do not add the unit.

Some solved cases for reference:
>>> endpoint_value("CS(=O)(=O)Cc1cccc(Nc2ncnc(-c3ccc(F)cc3OCC3CC3)n2)c1")
1.4
>>> endpoint_value("Cc1cccc(COc2cc(F)ccc2-c2ncnc(Nc3cccc(CS(C)(=O)=O)c3)n2)c1")
0.4
>>> endpoint_value("CCCCCCOc1cc(F)ccc1-c1ncnc(Nc2cccc(CS(C)(=O)=O)c2)n1")
2.7
>>> endpoint_value("CC(Oc1cc(F)ccc1-c1ncnc(Nc2cccc(CS(C)(=O)=O)c2)n1)c1ccccc1 (racemic)")
1.1
>>> endpoint_value("[2H]C([2H])([2H])Oc1ccccc1-c1ncnc(Nc2cccc(CS(C)(=O)=O)c2)n1")
2.5

Req: In one line, give reported IC50 of the entry CS(=O)(=O)Cc1cccc(Nc2ncnc(-c3ccc(F)cc3OCc3ccnc(F)c3)n2)c1 .
Resp: 0.075

Req: In one line, give reported IC50 of the entry CS(=O)(=O)Cc1cccc(Nc2ncnc(-c3cccc4c3OCCO4)n2)c1 .
Resp: 0.84

Req: In one line, give reported IC50 of the entry CS(=O)(=O)Cc1cccc(Nc2ncnc(-c3ccc(F)cc3OCc3ccc(Cl)cc3)n2)c1 .
Resp: 0.71

Req: In one line, give reported IC50 of the entry CS(=O)(=O)Cc1cccc(Nc2ncnc(-c3cccc4c3OC(F)(F)C(F)(F)O4)n2)c1 .
Resp: 0.64

Req: In one line, give reported IC50 of the entry CCOCCOc1cc(F)ccc1-c1ncnc(Nc2cccc(CS(C)(=O)=O)c2)n1 .
Resp: 9.4

Req: In one line, give reported IC50 of the entry CS(=O)(=O)Cc1cccc(Nc2ncnc(-c3ccc(F)cc3OC(F)F)n2)c1 .
Resp: 3.9

Req: In one line, give reported IC50 of the entry COCCS(=O)(=O)Cc1cccc(Nc2ncnc(-c3ccc(F)cc3OC)n2)c1 .
Resp: 1.3
